Measured growth inhibition, listed per entry for reference.
protocol: NCI Yeast Anticancer Drug Screen. Data for the mlh1 rad18 strain (AID 175)
details: S. cerevisiae mlh1 rad18 strain growth inhibition; at 5.0 µM (retest, dose inferred, filed as 0.5); hits give high values
About 79,000 compounds went through this panel and 15% of them were active in at least one assay; those are over-represented in the sample as a whole.
Supply the numeric figure in %, leaving out any unit text.

Please review the entries below; each comes with its answer.
CC(=O)ON=C1C=CC(=C(C#N)c2ccccc2)C=C1 | 49
O=C(Nc1c(Cl)cccc1Cl)OCCOc1ccc(Cl)cc1Cl | 55
Nc1ccc2c(c1)[nH]c(=O)c1cccc(Cl)c12 | -40

Can you look up the measured growth inhibition of O=C(Oc1cccc2cccnc12)c1ccccc1 for me?
7

Consider the compound C/C=C(/CN/C(=C\[N+](=O)[O-])c1ccccc1)c1ccccc1 and give its measured growth inhibition.
-8

Suppose we examine the compound CC(=O)OCc1ccc(O)c2ncccc12 ; what growth inhibition value has been reported?
-103

====

protocol: NCI Yeast Anticancer Drug Screen. Data for the rad50 strain (AID 155);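 further: 0% = growth of vehicle-only cultures of the same strain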
details: S. cerevisiae rad50 strain growth inhibition; at 50.0 µM; hits give high values
Compounds without any hit were thinned out: in the full panel of roughly 79,000, 15% have a hit.
property_name: growth inhibition (%)
Give the number; % is assumed, so skip it.

Example compounds with recorded growth inhibition:
Cc1nc2c(=O)[nH]c3ccc(Cl)cc3c2o1 | 42.5
COc1ccc(C(=O)C(CN2CCCC2)CN2CCCC2)cc1 | 47.6
CCc1cccc(C(C)(C)C)c1NC(=S)N/C=C(\c1ccccc1)S(=O)Cc1ccccc1 (stereo not given) | 68.4

Tell me the measured growth inhibition of Cc1cc(N/N=C/c2cccc3ccccc23)c2cc3c(cc2n1)OCO3 , please.
99.2

Looking for the measured growth inhibition of O=C(CNC(=O)c1ccccc1)Oc1c(Cl)c(Cl)c(Cl)c(Cl)c1Cl , can you help?
75

Fill in the blank: the reported growth inhibition of CCC1OC(OC)C=CC1=O (stereo not given) is ____.
90

Reported growth inhibition, compound O=C1NC(=O)/C(=C/C=C/c2ccccc2)S1 : ____
40.9

Dear colleague, I am looking for the recorded growth inhibition of the following compound: CCCCCCCN=C(N)c1ccc(C(=O)OCc2ccccc2)cc1
99.5

GET /values?readout=growth inhibition&item= O=[N+]([O-])c1ccc(Cc2nc3ccccc3s2)cc1
36.8

Can you share its growth inhibition? I mean this compound: CC(C)(C)NC1=NC(C(F)(F)F)(C(F)(F)F)NC(=O)N1
38.9

What growth inhibition value was documented for this compound, O=Nc1cc(-c2ccccc2)c2ccccc2c1O ?
-2.65

====

protocol: NCI Yeast Anticancer Drug Screen. Data for the bub3 strain (AID 167)
details: S. cerevisiae bub3 mutant strain, at 50.0 µM (retest, dose inferred, filed as 5.0)
This is part of a sample that, as a whole, favours compounds with a hit. Of some 79,000 tested, about 15% had one in any assay. The source made the active and inactive calls. Cut-off read from the data, not from the text of the source: active = growth inhibition above about 70%; inactive = the rest.
# valid calls are active, inactive; nothing else

Worked cases, answers included:
CN(C)CCC(/C=C/c1ccccc1)=N\Nc1ccc(Cl)c(Cl)c1 | active
O=C1NC(=O)/C(=C/C=C/c2ccccc2)S1 | active
c1ccc2c(c1)Nc1ccccc1[P+]21c2ccccc2Nc2ccccc21 | active
Nc1n[n+](-c2ccccc2)no1 | inactive
Cc1ccc(/C=C2\CCCc3ccccc3C2=O)cc1 | active

From here, focus on the item given below.
Call for entry COc1ccc(-n2c(=O)c3[nH]c(=S)[nH]c3n(-c3ccc(OC)cc3)c2=S)cc1 :
inactive

====

protocol: NCI Yeast Anticancer Drug Screen. Data for the rad50 strain (AID 155);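 further: 0% = growth of vehicle-only cultures of the same strain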
details: S. cerevisiae rad50 strain growth inhibition; at 50.0 µM (retest, dose inferred, filed as 5.0); hits give high values
Compounds without any hit were thinned out: in the full panel of roughly 79,000, 15% have a hit.
// reported growth inhibition for each item listed
Respond with the bare value in %.

The following molecules have reported results that may help.
C=C(C)C(=O)OC1CC2=CC(CC3(C)OC3C3OC(=O)C(=C)C13)OC2=O (stereo not drawn) | 19
CC[N+]1=C(/C=C\c2cc(C)c3cccnc3c2O)C(C)(C)c2ccccc21 | 98
NC(=O)NC(CC(=O)O)C(=O)O (stereo not drawn) | 12
CCCCCN(CCCCC)CC(O)c1cc2ccccc2c2ccccc12 (stereo not drawn) | 98
O=C(/C=C/C=C/c1ccccc1)c1ccco1 | -16
CCCCC(CCc1ccccc1)(C(=O)O)c1ccccc1 (stereo not drawn) | 99
CCCCN(CCCC)Cc1ccc(NC(C(=O)c2ccccc2)c2ccccc2)cc1 (stereo not drawn) | 46
C[C@]12CCC(=O)C=C1CC[C@@H]1[C@@H]2[C@@H](O)C[C@@]2(C)[C@H]1CC[C@]2(O)C(=O)COC(=O)C1CCCC1 | -10
C1CCC(OC2CCCCO2)OC1 (stereo not drawn) | 76
O=C(O)/C(=C/c1c(O)ccc2ccccc12)c1csc(-c2nc(/C(=C\c3c(O)ccc4ccccc34)C(=O)O)cs2)n1 | 74

What growth inhibition value was documented for this molecule, O=[N+]([O-])c1ccc(NSc2ccccc2)cc1 ?
98

Can you look up the measured growth inhibition of CCN(CC)CCCC(Nc1c2ccc(Cl)cc2nc2ccc(OC)cc12)c1cccs1 (stereo not drawn) for me?
74

What value of growth inhibition has been reported for the following molecule? O=C1Nc2ccccc2NC(=O)C(=C(c2ccccc2)c2ccccc2)C1=C(c1ccccc1)c1ccccc1
96

====

protocol: NCI Yeast Anticancer Drug Screen. Data for the mec2-1 strain (AID 157)
details: S. cerevisiae mec2-1 strain, at 50.0 µM, hits give high values
The panel holds about 79,000 compounds, 15% with a hit somewhere; the sample as a whole holds those more often.
Listed next: entries and their corresponding growth inhibition.
Numeric answer only, unit % assumed.

Sample Nc1nc2nc(I)[nH]c2c(=O)[nH]1 — what was its growth inhibition?
-2.5

Quick check: growth inhibition of Nc1cc2c(c[n+](CCCCCCCCCC[n+]3cc4c5ccccc5c(N)cc4c4ccccc43)c3ccccc23)c2ccccc12 ?
91.8

Report growth inhibition for COc1cccc(CC2N(S(=O)(=O)c3ccc(C)cc3)CCC23C(=O)Nc2ccccc23)c1OC (stereo unspecified) please.
69.4

====

protocol: NCI Yeast Anticancer Drug Screen. Data for the sgs1 mgt1 strain (AID 161);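 further: 0% = growth of cultures given vehicle only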
details: S. cerevisiae sgs1 mgt1 strain, at 50.0 µM (retest, dose inferred, filed as 5.0), hits give high values
This is part of a sample that, as a whole, favours compounds with a hit. Of some 79,000 tested, about 15% had one in any assay.
Reported growth inhibition values are given for each entry in this list.
Could you give me the number in %? Just the number is fine.

CCOC(=O)C(C(C)=O)C1=C(Cl)C(=O)c2ccccc2C1=O (configuration not stated) | 100

growth inhibition lookup needed for CN(C)CCSc1cc(-c2ccccc2)c2ccccc2n1 , thanks.
91

Item CN(C)c1ccc(/C=C(\C#N)c2c(F)cccc2F)cc1 has what recorded growth inhibition?
1

Quick one: growth inhibition for O=C1CCC(=O)c2c1c(O)c1ccncc1c2O ?
99

Which measured growth inhibition value corresponds to CC1(COc2ccccc2OCC2(C)CO2)CO1 (configuration not stated) ?
10

Please give the measured growth inhibition for this compound: CCC(=O)/C(=C\I)c1ccccc1
23

Dear colleague, I am looking for the recorded growth inhibition of the following compound: O=C1C=CC(=Nc2cc3c(cc2Br)-c2ccccc2C3Br)O1 (configuration not stated)
100

====

growth inhibition for assorted compounds
protocol: NCI Yeast Anticancer Drug Screen. Data for the cln2 rad14 strain (AID 165);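 further: 0% = growth equal to vehicle treated cultures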
details: S. cerevisiae cln2 rad14 strain, at 5.0 µM (retest, dose inferred, filed as 0.5), hits give high values
About 79,000 compounds went through this panel and 15% of them were active in at least one assay; those are over-represented in the sample as a whole. Activity calls are given as the source filed them. Rule as the data show it: active = growth inhibition above about 70%; inactive = the rest.

These recorded examples may help you get a feel for the data.
O=C(NCCCCCCNC(=O)n1cc(F)c(=O)[nH]c1=O)NCCCOCCOCCOCCOCCOCCOCCOCCOCCOCCOCCOCCOCCOCCOCCOCCOCCOCCOCCOCCOCCOCCCNC(=O)C(O)C(O)C(O)C(O)CO (centres undefined) | 33% (inactive)
Nc1nc2nc(I)[nH]c2c(=O)[nH]1 | -8% (inactive)

Request the reported growth inhibition associated with O=C1c2ccccc2C(O)(C#Cc2ccccc2)c2cnccc21 (centres undefined)
-11% (inactive)

If you can, please state the reported growth inhibition value of CC(=O)Nc1ccc(-c2cnc3ccccc3c2)cc1 .
-5% (inactive)

Look up growth inhibition for this compound: CN(C)C(=O)SC1=C(c2c(Cl)cccc2Cl)C(=O)c2ccccc21
33% (inactive)

Entry CC/C(=N\NS(=O)(=O)c1ccc(C)cc1)c1cccc(OC)c1 : reported growth inhibition = ?
37% (inactive)

====

protocol: NCI Yeast Anticancer Drug Screen. Data for the mlh1 rad18 strain (AID 175)
details: S. cerevisiae mlh1 rad18 strain growth inhibition; at 50.0 µM (retest, dose inferred, filed as 5.0); hits give high values
Compounds without any hit were thinned out: in the full panel of roughly 79,000, 15% have a hit.
Binary classification by growth inhibition, with 90% as an inclusive lower bound for condition met; all other cases are condition not met.

See these solved cases before continuing.
CC(=O)c1ccc(OCc2ccccc2)cc1 | condition not met
O=C(NNc1ccc(F)cc1)C12CC3CC(CC(C3)C1)C2 | condition met

Quick check, growth inhibition >= 90%? COc1ccc(NC(=O)CCC(=O)CC(=O)c2ccncc2)cc1
condition not met

Check if growth inhibition >= 90% (inclusive). Item: COC(=O)c1ccccc1C#Cc1ccccc1C(=O)OC
condition not met

Form field: growth inhibition at least 90%? Entry: Cc1cccc(C)c1N1C(=O)C2Nc3ccccc3SC2C1=O (configuration not stated)
condition met
